Data provenance is patent US20180312493A1.

Kindly supply the reported MIC values for the records listed here.
- Tested on: MRSA MW2 (USA400)
- test_name: In vitro susceptibility, broth microdilution (MIC)
- Type: cell-based, methicillin resistant S. aureus
- condition: Staphylococcus aureus; MRSA MW2 (USA400); read-out: Antimicrobial activity (MIC) MSRA USA400
Give bare numbers, in mg/L.

CN(C)CCC(=O)c1c(/C=C/c2ccc(Cl)cc2)[nH]c2cc(Br)ccc12.Cl | 8

The compound Clc1cc2nc(-c3cc4ccc(Br)cc4[nH]3)[nH]c2cc1Cl showed MIC equal to 1

====

- target: MRSA Pyk (Staphylococcus aureus, UniProt Q6GG09)
- Sequence (Q6GG09 whole entry): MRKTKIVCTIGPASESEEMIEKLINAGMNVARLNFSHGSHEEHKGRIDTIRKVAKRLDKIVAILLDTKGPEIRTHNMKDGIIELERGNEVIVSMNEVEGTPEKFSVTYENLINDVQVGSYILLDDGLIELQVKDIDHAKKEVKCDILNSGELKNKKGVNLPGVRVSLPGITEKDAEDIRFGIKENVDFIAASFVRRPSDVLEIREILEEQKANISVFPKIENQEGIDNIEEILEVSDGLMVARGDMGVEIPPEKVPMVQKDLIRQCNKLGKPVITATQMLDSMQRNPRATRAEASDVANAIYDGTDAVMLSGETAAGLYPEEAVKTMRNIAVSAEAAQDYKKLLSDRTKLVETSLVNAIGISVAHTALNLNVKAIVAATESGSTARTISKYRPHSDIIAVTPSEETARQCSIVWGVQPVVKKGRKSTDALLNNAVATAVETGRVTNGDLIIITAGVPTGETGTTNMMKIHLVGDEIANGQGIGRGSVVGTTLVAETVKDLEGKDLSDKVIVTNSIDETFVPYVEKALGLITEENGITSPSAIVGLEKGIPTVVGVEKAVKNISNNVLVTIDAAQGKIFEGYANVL
- test_name: MRSA pyruvate kinase (PK) activity, continuous LDH-coupled assay
Kindly supply the reported IC50 values for the records listed here.

O=C1CN(CCNC(=O)c2c(-c3cc4cc(Cl)ccc4[nH]3)[nH]c3cc(Br)ccc23)CCN1 | < 100 nM
CC(C)(C)OC(=O)N1CCN(CCNC(=O)c2c(C(=O)Nc3ccc(Cl)cc3)[nH]c3cc(Br)ccc23)CC1 | < 100 nM
COc1cc2[nH]c(-c3[nH]c4cc(Br)ccc4c3C(=O)C(F)(F)F)cc2cc1Cl | < 100 nM
NS(=O)(=O)c1c(CCc2ccc(Cl)cc2)[nH]c2cc(Br)ccc12 | > 1000 nM
O=C(O)COc1cc2[nH]c(-c3cc4ccc(Br)cc4[nH]3)cc2cc1Cl | < 100 nM

Could I get IC50 for every one of these entries?
1. O=C(NC1CN2CCC1CC2)c1c(/C=C/c2ccc(Cl)cc2)[nH]c2cc(Br)ccc12 (centres unmarked)
2. CN1CCN(CCNC(=O)CCCC(=O)c2c(-c3cc4cc(Cl)ccc4[nH]3)[nH]c3cc(Br)ccc23)CC1
3. CN(C)CCON=C(c1c(-c2cc3cc(Cl)ccc3[nH]2)[nH]c2cc(Br)ccc12)C(F)(F)F (racemic)

stdout:
1. 100 to 1000 nM
2. < 100 nM
3. < 100 nM
